// provenance: patent US11753410B2

# Emax listing for each entry below
- target_entity: ligand binding domain of human FXR (Homo sapiens, UniProt Q96RI1)
- Construct: purchased Thermofisher (LanthaScreen) PV4833
- Sequence (Q96RI1 262-486 limits assumed): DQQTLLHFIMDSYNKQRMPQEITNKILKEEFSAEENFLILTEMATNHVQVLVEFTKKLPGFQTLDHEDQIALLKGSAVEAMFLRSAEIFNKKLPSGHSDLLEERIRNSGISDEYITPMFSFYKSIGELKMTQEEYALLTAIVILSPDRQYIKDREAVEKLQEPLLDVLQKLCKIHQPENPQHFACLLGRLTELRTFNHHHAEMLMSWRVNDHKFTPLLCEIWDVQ
- test_details: biochemical
- experimental_parameters: extent of activation relative to GW4064; read-out: Ligand Binding % Efficacy
Numbers only; they are read as %.

Field: example entries. Status: answers known.
- C[C@@H]1[C@@H]2C[C@@H](C[C@H]2OCc2c(C3CC3)cnn2-c2c(Cl)cccc2Cl)N1c1ccc(C(=O)O)c(F)c1: 44
- O=C(NS(=O)(=O)C1CCOCC1)c1ccc(N2C[C@@H]3C[C@H]2C[C@H]3OCc2c(C3CC3)nnn2-c2c(Cl)cccc2Cl)cc1: 180
- O=C(O)CCc1ccc(N2C[C@@H]3C[C@H]2C[C@H]3OCc2c(-c3c(Cl)cccc3Cl)cnn2C2CC2)c(F)c1: 96
- O=C(NS(=O)(=O)CC1CCOC1)c1ccc(N2C[C@@H]3C[C@H]2C[C@H]3OCc2c(C3CC3)cnn2-c2c(Cl)cccc2Cl)cc1 (some centres unmarked): 164

Q: Suppose we examine the compound O=C(O)c1cc(O[C@@H]2CCOC2)c2nc(N3C[C@@H]4C[C@H]3C[C@H]4OCc3c(C4CC4)nnn3-c3c(Cl)cccc3Cl)sc2c1 ; what Emax value has been reported?
Result: 158

###

- target_entity: ligand binding domain of human FXR (Homo sapiens, UniProt Q96RI1)
- Construct: purchased Thermofisher (LanthaScreen) PV4833
- test_details: biochemical
- experimental_parameters: −log EC50, concentration required to produce 50% activation; FRET 520 nm/495 nm, 1 hour at room temperature; read-out: Ligand Binding pEC50 (converted)
- Method: The affinity of FXR ligands for the ligand binding domain of FXR was determined using a commercially available human FXR ligand binding assay (LanthaScreen, Thermofisher Cat #PV4833). […] Test compounds are dissolved in DMSO and a 3-fold serial dilution series is generated, then further diluted into assay buffer. […] The reaction is incubated at room temperature for 1 hour, then the FRET signal is measured as the ratio of the 520 nm/495 nm emission following excitation at 340 nm. […]
result_type: EC50 (nM)
# output: bare number, implied unit nM

• C[C@@H]1[C@@H]2C[C@@H](C[C@H]2OCc2c(C3CC3)cnn2-c2c(Cl)cccc2Cl)N1c1ccc(C(=O)NS(=O)(=O)C2CC2)c(F)c1 = 200
• O=C(O)CCc1ccc(N2C[C@@H]3C[C@H]2C[C@H]3OCc2c(C3CC3)cnn2-c2c(Cl)cccc2Cl)c(F)c1 = 39.8
• O=C(O)CCc1ccc(N2C[C@@H]3C[C@H]2C[C@H]3OCc2c(C3CC3)cnn2-c2c(F)cccc2Cl)c(F)c1 = 158
• O=C(NS(=O)(=O)C1CCOCC1)c1ccc(N2C(=O)[C@@H]3C[C@H]2C[C@H]3OCc2c(C3CC3)cnn2-c2c(Cl)cccc2Cl)cc1 = 10
• O=C(O)c1cc(C2CCOCC2)c2nc(N3C[C@@H]4C[C@H]3C[C@H]4OCc3c(-c4c(Cl)cccc4Cl)nnn3C3CC3)sc2c1 = 20
• CC[C@@H]1[C@@H]2C[C@@H](C[C@H]2OCc2c(C3CC3)cnn2-c2c(Cl)cccc2Cl)N1c1ccc(C(=O)O)cc1 = 1000
• O=C(NS(=O)(=O)C1CCOCC1)c1ccc(N2C[C@@H]3C[C@H]2C[C@H]3OCc2c(C3CC3)cnn2-c2c(Cl)cccc2Cl)cn1 = 25.1
• C[C@@H]1[C@@H]2C[C@@H](C[C@H]2OCc2c(C3CC3)cnn2-c2c(Cl)cccc2Cl)N1c1ccc(C(=O)O)cc1 = 398
• O=C(O)c1cc(OC2CC2)c2nc(N3C[C@@H]4C[C@H]3C[C@H]4OCc3c(-c4c(Cl)cccc4Cl)cnn3C3CC3)sc2c1 = 39.8
• O=C(O)CCc1ccc(N2C[C@@H]3C[C@H]2C[C@H]3OCc2c(C3CC3)cnn2-c2c(F)cccc2F)c(F)c1 = 631

Q: State the recorded EC50 for this entry: O=C(O)c1cc([C@@H]2CCOC2)c2nc(N3C[C@@H]4C[C@H]3C[C@H]4OCc3c(C4CC4)nnn3-c3c(Cl)cccc3Cl)sc2c1 (single isomer, unassigned)
Result: 1.58

Q: Now consider O=C(O)c1ccc(N2C[C@@H]3C[C@H]2C[C@H]3OCc2c(C3CC3)cnn2-c2c(Cl)cccc2Cl)cn1 and answer again.
Result: 251

Q: Also O=C(O)c1cc(OC2CC2)c2nc(N3C[C@@H]4C[C@H]3C[C@H]4OCc3c(-c4c(Cl)cccc4Cl)nnn3C3CC3)sc2c1 ?
Result: 5.01

Q: Subsequent entry: O=C(O)c1cc(C2CCC2)c2nc(N3C[C@@H]4C[C@H]3C[C@H]4OCc3c(-c4c(Cl)cccc4Cl)nnn3C3CC3)sc2c1
Result: 3.98
